# Target: Large T antigen (Simian virus 40);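 also: Confirmatory-stage PubChem screen for compounds that inhibit SV40 T antigen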
# Sequence (P03070 whole entry): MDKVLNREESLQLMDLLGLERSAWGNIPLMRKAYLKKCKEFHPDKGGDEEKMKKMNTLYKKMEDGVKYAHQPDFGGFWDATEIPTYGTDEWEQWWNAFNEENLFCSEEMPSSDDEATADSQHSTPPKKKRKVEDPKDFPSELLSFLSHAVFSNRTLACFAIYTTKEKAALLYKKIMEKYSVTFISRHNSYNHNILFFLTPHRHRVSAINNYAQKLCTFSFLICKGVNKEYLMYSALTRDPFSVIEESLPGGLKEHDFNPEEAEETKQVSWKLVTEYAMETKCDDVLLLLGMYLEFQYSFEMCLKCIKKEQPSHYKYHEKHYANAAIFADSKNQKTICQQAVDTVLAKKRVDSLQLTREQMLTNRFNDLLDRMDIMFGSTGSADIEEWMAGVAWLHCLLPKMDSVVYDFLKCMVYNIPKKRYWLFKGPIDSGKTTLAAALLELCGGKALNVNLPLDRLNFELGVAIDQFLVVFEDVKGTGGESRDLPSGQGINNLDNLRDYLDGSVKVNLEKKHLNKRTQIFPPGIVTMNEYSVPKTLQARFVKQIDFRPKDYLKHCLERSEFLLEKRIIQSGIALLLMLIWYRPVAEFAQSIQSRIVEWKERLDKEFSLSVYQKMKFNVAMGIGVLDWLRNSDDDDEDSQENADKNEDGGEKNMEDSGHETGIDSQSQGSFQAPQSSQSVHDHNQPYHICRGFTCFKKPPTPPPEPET
# Format: functional, Betapolyomavirus macacae
The source made the active and inactive calls.
IC50 by entry:

{"Compound": "Cn1cccc1/C=N/N1CCN(Cc2ccccc2)CC1", "IC50": "17.6 µM (active)"}
{"Compound": "O=S(=O)(c1ccc(NC(=S)N2CCN(c3ccc(O)cc3)CC2)cc1)N1CCOCC1", "IC50": "9.69 µM (active)"}
{"Compound": "COc1cc(/C(C)=N/NC(=O)Cc2c(C)n[nH]c2O)ccc1O", "IC50": "13 µM (active)"}
{"Compound": "O=C1CCCC(O)=C1/C=N/c1ccc(O)cc1", "IC50": "12.3 µM (active)"}
{"Compound": "COc1ccc(N2CSC3=C(C#N)C(c4cccs4)CC(=O)N3C2)cc1 (stereo not given)", "IC50": "10.7 µM (active)"}
{"Compound": "N#CC(C#N)=C1C=CC=CN1/C(=C\\c1ccco1)C(=O)c1ccc(Br)cc1", "IC50": "15.5 µM (active)"}
{"Compound": "CN(C)c1ccc(C(=O)c2ccc(N(C)C)c(N)c2)cc1N", "IC50": "19.3 µM (active)"}
{"Compound": "CC/C(=N\\c1ccccc1O)C1=C(O)CC(c2ccccc2)CC1=O (stereo not given)", "IC50": "15.2 µM (active)"}
{"Compound": "N#C/C(=C\\c1coc2ccc(O)cc2c1=O)C(=O)/N=c1\\[nH]c2ccccc2s1", "IC50": "15.9 µM (active)"}
{"Compound": "COc1cc(/C=C2/C(=O)NN(c3cccc(C)c3)C2=O)ccc1OC(=O)c1ccco1", "IC50": "32.1 µM (active)"}

* * *

# Target: Disintegrin and metalloproteinase domain-containing protein 17 (Homo sapiens)
# Sequence (P78536 whole entry, the tested form may be a part): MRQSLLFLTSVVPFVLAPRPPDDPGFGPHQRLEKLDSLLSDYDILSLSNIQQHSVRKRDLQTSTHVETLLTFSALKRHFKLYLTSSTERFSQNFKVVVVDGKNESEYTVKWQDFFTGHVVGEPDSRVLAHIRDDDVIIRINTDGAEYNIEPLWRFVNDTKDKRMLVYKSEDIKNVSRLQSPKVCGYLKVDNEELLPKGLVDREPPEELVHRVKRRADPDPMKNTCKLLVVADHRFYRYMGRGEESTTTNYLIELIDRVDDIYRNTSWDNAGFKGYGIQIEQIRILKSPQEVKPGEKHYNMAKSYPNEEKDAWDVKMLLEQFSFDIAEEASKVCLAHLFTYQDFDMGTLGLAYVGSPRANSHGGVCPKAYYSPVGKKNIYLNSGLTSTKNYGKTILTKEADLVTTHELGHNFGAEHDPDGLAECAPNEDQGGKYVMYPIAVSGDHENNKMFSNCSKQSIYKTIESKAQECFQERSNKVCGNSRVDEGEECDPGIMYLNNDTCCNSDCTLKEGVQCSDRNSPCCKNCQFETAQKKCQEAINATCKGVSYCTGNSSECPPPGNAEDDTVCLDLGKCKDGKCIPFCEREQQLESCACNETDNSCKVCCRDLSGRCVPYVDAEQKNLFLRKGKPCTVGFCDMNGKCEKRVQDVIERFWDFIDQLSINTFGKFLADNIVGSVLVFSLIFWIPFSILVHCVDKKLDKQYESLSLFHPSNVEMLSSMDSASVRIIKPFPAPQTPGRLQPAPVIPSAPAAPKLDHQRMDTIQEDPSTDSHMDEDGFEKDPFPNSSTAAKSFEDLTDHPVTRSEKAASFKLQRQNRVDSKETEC
# Assay comment: exosite inhibitors of ADAM17, dose response, biochemical (AID 743260)
Active and inactive are the calls of the source.

{"Compound": "COc1ccc(/N=C2\\SC(CC(=O)Nc3ccc(F)cc3)C(=O)N2Cc2ccco2)cc1 (stereo not given)", "IC50": "> 69.5 µM (inactive)"}
{"Compound": "COc1ccc(-c2ccc(CN3C(C(C)C)C(=O)N(Cc4cn(Cc5ccco5)nn4)CCS3(=O)=O)cc2)cc1OC (stereo not given)", "IC50": "> 69.5 µM (inactive)"}
{"Compound": "O=C(NCC1CCCO1)C(c1cccs1)N(Cc1ccccc1)C(=O)c1ccc(-c2ccccc2)[nH]1 (stereo not given)", "IC50": "> 69.5 µM (inactive)"}
{"Compound": "Cc1ccc(/C=C/C(=O)Nc2ccc(Oc3ccccc3)cc2)o1", "IC50": "> 69.6 µM (inactive)"}
{"Compound": "CCOc1ccc(/C=C/C(=O)c2cc(Br)ccc(=O)c2O)cc1", "IC50": "11.4 µM (inactive)"}

* * *

# System: H4
# Assay comment: Luminescence Cell-Based Dose Response HTS to Identify Activators of 5'UTR Stem-Loop Driven Prion Protein mRNA Translation in H4 Neuroglioblastoma Cells. [Related pubchem assays: 1829 (Project Summary), 1814 (Primary HTS)]
# Type: functional
# Assay context: Homo sapiens
The source made the active and inactive calls.
Collected EC50 values appear next to each entry.
Experimental readout: EC50

{"Molecule": "O=C(N/N=C/c1ccc(OCc2ccccc2)cc1)c1ccncc1", "Experimental readout": "EC50", "Value": "19.3 µM (active)"}
{"Molecule": "O=C(CC1SC(N2CCCC2)=NC1=O)Nc1ccc(C(=O)Nc2ncccc2O)cc1 (stereo not drawn)", "Experimental readout": "EC50", "Value": "12.3 µM (active)"}
{"Molecule": "CCCC1c2ccc(C)n2CCN1C(=O)Nc1ccccc1Cl (stereo not drawn)", "Experimental readout": "EC50", "Value": "> 120 µM (not active)"}
{"Molecule": "O=S(=O)([N-]c1nc2ccccc2nc1-[n+]1ccc(-c2ccncc2)cc1)c1ccccc1", "Experimental readout": "EC50", "Value": "> 120 µM (not active)"}
{"Molecule": "CCc1ccc2nc(O)c(CN(Cc3nnnn3C3CCCC3)C3CCCCC3)cc2c1", "Experimental readout": "EC50", "Value": "> 120 µM (not active)"}
{"Molecule": "CCCCCOc1ccc(CN2CCOCC2)cc1Cl", "Experimental readout": "EC50", "Value": "35.5 µM (active)"}
{"Molecule": "CC1CCN(C(=O)c2ccc3ccccc3c2)CC1", "Experimental readout": "EC50", "Value": "> 120 µM (not active)"}
{"Molecule": "CCCC(=O)Nc1sc2c(c1C#N)CCCCC2", "Experimental readout": "EC50", "Value": "> 120 µM (not active)"}
